Test system: 287954-098-R-J1 tumor spheroid viability
Experiment: Anticancer human tumor 287954-098-R-J1 patient-derived Ewing sarcoma cell line growth inhibition
Conditions: second compound 0.0003 µM; first compound 0.0949 µM; stronger effect = lower value; spheroids with HUVEC and MSC
VALUE_TYPE: viability, T/C (%)
Only the number, expressed in %, is required.

-- ask Query: viability, T/C; subject: CNCc1ccc(-c2cc(-c3nc(-c4ccc(S(=O)(=O)C(C)C)cc4)cnc3N)on2)cc1 + COc1cc2c(cc1O)CCNC21CSC2c3c(OC(C)=O)c(C)c4c(c3C(COC1=O)N1C(O)C3Cc5cc(C)c(OC)c(O)c5C(C21)N3C)OCO4
-- reply 85.7

-- ask Item under review: O=C(c1cc(Cc2n[nH]c(=O)c3ccccc23)ccc1F)N1CCN(C(=O)C2CC2)CC1 + COc1cc2c(cc1O)CCNC21CSC2c3c(OC(C)=O)c(C)c4c(c3C(COC1=O)N1C(O)C3Cc5cc(C)c(OC)c(O)c5C(C21)N3C)OCO4 . Reported viability, T/C?
-- reply 98.8

-- ask Name the recorded viability, T/C for Cc1sc2c(c1C)C(c1ccc(Cl)cc1)=NC(CC(=O)Nc1ccc(O)cc1)c1nnc(C)n1-2 (centres undefined) + COc1cc2c(cc1O)CCNC21CSC2c3c(OC(C)=O)c(C)c4c(c3C(COC1=O)N1C(O)C3Cc5cc(C)c(OC)c(O)c5C(C21)N3C)OCO4 .
-- reply 39

-- ask Any idea what viability, T/C was measured for Cn1ncnc1[C@H]1c2n[nH]c(=O)c3cc(F)cc(c23)N[C@@H]1c1ccc(F)cc1 + COc1cc2c(cc1O)CCNC21CSC2c3c(OC(C)=O)c(C)c4c(c3C(COC1=O)N1C(O)C3Cc5cc(C)c(OC)c(O)c5C(C21)N3C)OCO4 ?
-- reply 6

====

Test system: 287954-098-R-J1 tumor spheroid viability
Experiment: Anticancer human tumor 287954-098-R-J1 cell line growth inhibition;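 further: spheroids exposed to compound for 7 days before viability readout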
Conditions: curve of first compound; second compound 10 µM; spheroids with HUVEC and MSC
Provide the recorded pIC50 for the entries that follow.
When answering, recall that pIC50 equals minus log10 of the concentration in mol/L, and write that number alone.

-- ask I have this compound here, Cn1ncnc1[C@H]1c2n[nH]c(=O)c3cc(F)cc(c23)N[C@@H]1c1ccc(F)cc1 + Cn1nnc2c(C(N)=O)ncn2c1=O , and I need its recorded pIC50.
-- reply 6.30

-- ask # input compound: Cc1sc2c(c1C)C(c1ccc(Cl)cc1)=NC(CC(=O)Nc1ccc(O)cc1)c1nnc(C)n1-2 (stereo not given) + Cn1nnc2c(C(N)=O)ncn2c1=O ; wanted: its pIC50
-- reply 5.95

-- ask For the compound shown here, CC1COCCN1c1cc(-c2ccnn2C)c2ccnc(-c3ccn[nH]3)c2n1 (stereo not given) + Cn1nnc2c(C(N)=O)ncn2c1=O , give the reported pIC50.
-- reply 7.02

-- ask Given O=C(c1cc(Cc2n[nH]c(=O)c3ccccc23)ccc1F)N1CCN(C(=O)C2CC2)CC1 + Cn1nnc2c(C(N)=O)ncn2c1=O , state its recorded pIC50.
-- reply 4.98

-- ask GET /values?readout=pIC50&item= CNCc1ccc(-c2cc(-c3nc(-c4ccc(S(=O)(=O)C(C)C)cc4)cnc3N)on2)cc1 + Cn1nnc2c(C(N)=O)ncn2c1=O
-- reply 6.26
